Data credit: PubChem BioAssay (Tox21)

# Procedure text: qHTS assay to identify small molecule antagonists of the estrogen related receptor signaling pathway with the pleiotropic PPARgamma coactivator (PGC) from Tox21 10K library - cell viability counter screen (AID 1224840); also: nearly all actives have a fitted effect of over 40% in size
# Experimental conditions: PGC/ERR reporter cells viability, CellTiter-Fluor, 17.5 h; series mostly up to 92.4 µM
Inconclusive results are not listed. Calls of active or inactive are those of the source. Calls follow the shape of the dose curve; as a rule, active = well fitted cell-killing curve with a large enough effect in the repeat runs (not every such curve was filed as active); inconclusive = weak or mixed curves, or effect the other way; inactive = no such curve, though single readings can be large or run the other way.
Hello, when you answer, please use one of the following outcomes: 1 (yes) for active, 0 (no) for inactive

Give the logged outcome of this assay for the following compound: "COC1=C(OC)C(=O)C(CCCCCCCCCCO)=C(C)C1=O"
0 (no)

Give the logged outcome of this assay for the following compound: "CC[C@H](C)COC(=O)/C=C/c1ccc(N=Cc2ccc(OC)cc2)cc1"
0 (no)

Give the logged outcome of this assay for the following compound: "Cc1c(C)c2c(c(C)c1OC(=O)c1cccnc1)CC[C@@](C)(CCC[C@H](C)CCC[C@H](C)CCCC(C)C)O2"
0 (no)

Give the logged outcome of this assay for the following compound: "O=C1c2ccccc2C(=O)N1SC1CCCCC1"
0 (no)

Give the logged outcome of this assay for the following compound: "OC[C@@H](O)[C@@H](O)CO"
0 (no)

Give the logged outcome of this assay for the following compound: "FC(F)(F)c1cccc(Cl)c1"
0 (no)

Give the logged outcome of this assay for the following compound: "CCC(COC(=O)CCS)(COC(=O)CCS)COC(=O)CCS"
0 (no)

Give the logged outcome of this assay for the following compound: "COc1ccc2cc1Oc1ccc(cc1)C[C@H]1c3c(cc4c(c3Oc3cc5c(cc3OC)CCN(C)[C@@H]5C2)OCO4)CCN1C"
1 (yes)

Give the logged outcome of this assay for the following compound: "CN(C)C(=O)COC(=O)Cc1ccc(OC(=O)c2ccc(N=C(N)N)cc2)cc1"
0 (no)

Give the logged outcome of this assay for the following compound: "CCC(=O)OC(=O)CC"
0 (no)

Give the logged outcome of this assay for the following compound: "O=c1[nH]c(=O)n([C@H]2C[C@H](O)[C@@H](CO)O2)cc1F"
0 (no)

Give the logged outcome of this assay for the following compound: CC(C)(c1cc(Br)c(OCC(Br)CBr)c(Br)c1)c1cc(Br)c(OCC(Br)CBr)c(Br)c1 (stereo unspecified)
0 (no)

Give the logged outcome of this assay for the following compound: C#CC1(O)CC[C@H]2[C@@H]3CCC4=CCCC[C@@H]4[C@H]3CC[C@@]21C (stereo partly specified)
1 (yes)

Give the logged outcome of this assay for the following compound: "C=Cc1cccc(C)c1"
0 (no)

Give the logged outcome of this assay for the following compound: "Cc1ccc(N/N=c2\c(=O)cc/c(=N\Nc3ccc(S(=O)(=O)O)cc3)c2=O)c(C)c1"
1 (yes)

Give the logged outcome of this assay for the following compound: "O=C(O)Cc1ccc2c(c1)C(=O)c1ccccc1CO2"
0 (no)

Give the logged outcome of this assay for the following compound: "Nc1ccc(Oc2ccc(Cl)cc2)cc1"
0 (no)

Give the logged outcome of this assay for the following compound: CCCCC(CC)CN1CN(CC(CC)CCCC)CC(C)(N)C1 (stereo unspecified)
0 (no)

Give the logged outcome of this assay for the following compound: "CCn1c2ccccc2c2cc([N+](=O)[O-])ccc21"
0 (no)

Give the logged outcome of this assay for the following compound: "O=C(Oc1ccccc1)Oc1ccccc1"
0 (no)

Give the logged outcome of this assay for the following compound: "O=C1OC2(c3ccc(O)cc3Oc3cc(O)ccc32)c2ccc(N=C=S)cc21"
0 (no)

Give the logged outcome of this assay for the following compound: "O=C1C(c2[nH]c3ccc(S(=O)(=O)O)cc3c2O)=Nc2ccc(S(=O)(=O)O)cc21"
0 (no)

Give the logged outcome of this assay for the following compound: "Nc1nc2c(ncn2COCCO)c(=O)[nH]1"
0 (no)

Give the logged outcome of this assay for the following compound: "Cc1nc(-c2ccc(Cl)cc2)oc1COC(C)(C)C(=O)O"
0 (no)

Give the logged outcome of this assay for the following compound: "CC/C=C\CCCCCO"
0 (no)

Give the logged outcome of this assay for the following compound: "C/C=C/C=C/COC(=O)C(C)C"
0 (no)

Give the logged outcome of this assay for the following compound: "O=C(O)[C@H](O)[C@@H](O)[C@H](O[C@@H]1O[C@H](CO)[C@H](O)[C@H](O)[C@H]1O)[C@H](O)CO"
0 (no)

Give the logged outcome of this assay for the following compound: "CCCCC/C=C\C/C=C\CCCCCCCC(=O)O"
0 (no)

Give the logged outcome of this assay for the following compound: "OC[C@H]1O[C@H](O[C@H]2O[C@H](CO)[C@@H](O)[C@H](O)[C@H]2O)[C@H](O)[C@@H](O)[C@@H]1O"
0 (no)

Give the logged outcome of this assay for the following compound: CC(C(=O)O)c1ccc2c(c1)[nH]c1ccc(Cl)cc12 (stereo unspecified)
0 (no)

Give the logged outcome of this assay for the following compound: "CCCCOC(=O)CO"
0 (no)
